molecular target: cAMP and cAMP-inhibited cGMP 3',5'-cyclic phosphodiesterase 10A (Homo sapiens, UniProt Q9Y233)
Sequence (Q9Y233 whole entry): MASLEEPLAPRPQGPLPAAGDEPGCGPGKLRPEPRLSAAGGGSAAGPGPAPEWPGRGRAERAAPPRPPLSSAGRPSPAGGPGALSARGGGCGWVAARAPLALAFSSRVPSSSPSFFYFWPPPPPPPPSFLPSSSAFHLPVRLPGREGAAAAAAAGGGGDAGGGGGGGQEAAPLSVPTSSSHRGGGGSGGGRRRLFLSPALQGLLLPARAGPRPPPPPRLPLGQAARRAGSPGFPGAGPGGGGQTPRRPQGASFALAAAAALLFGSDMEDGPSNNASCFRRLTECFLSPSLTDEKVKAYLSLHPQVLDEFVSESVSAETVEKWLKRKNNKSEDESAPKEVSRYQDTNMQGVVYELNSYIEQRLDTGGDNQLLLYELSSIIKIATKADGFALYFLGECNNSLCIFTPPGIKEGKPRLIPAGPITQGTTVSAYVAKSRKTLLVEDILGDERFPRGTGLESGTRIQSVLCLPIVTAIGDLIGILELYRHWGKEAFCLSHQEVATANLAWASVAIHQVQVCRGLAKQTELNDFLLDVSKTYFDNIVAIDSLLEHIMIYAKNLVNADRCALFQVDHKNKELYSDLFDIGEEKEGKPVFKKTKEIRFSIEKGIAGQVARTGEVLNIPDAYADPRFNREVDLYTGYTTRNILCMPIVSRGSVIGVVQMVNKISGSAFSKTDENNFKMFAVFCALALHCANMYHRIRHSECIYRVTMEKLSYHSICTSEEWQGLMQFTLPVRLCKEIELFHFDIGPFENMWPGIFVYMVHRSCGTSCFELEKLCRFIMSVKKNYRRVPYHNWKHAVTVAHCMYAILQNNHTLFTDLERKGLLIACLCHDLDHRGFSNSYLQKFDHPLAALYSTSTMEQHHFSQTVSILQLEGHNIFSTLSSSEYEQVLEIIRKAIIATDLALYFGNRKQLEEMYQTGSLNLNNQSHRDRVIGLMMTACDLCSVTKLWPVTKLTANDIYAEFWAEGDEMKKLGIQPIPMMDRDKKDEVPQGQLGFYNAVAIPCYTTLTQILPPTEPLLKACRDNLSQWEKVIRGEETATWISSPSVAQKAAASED
readoutType: pIC50
Worth noting: pIC50 values are minus log10 of concentrations stated in mol/L.

Some entries whose results are on file:
COc1cnccc1-c1cccnc1Oc1ccc(C(=O)c2nc3ccccc3[nH]2)cc1	9.58
COc1cncc(-c2cccnc2Oc2ccc(Nc3nc4ccccc4s3)cc2)c1	8.39
Cc1ccc(-c2cccnc2Oc2ccc(C(=O)c3nc4ccccc4[nH]3)cc2)cn1	9.75

Reported pIC50 for O=C(c1ccc(Oc2ncccc2[C@H]2CCC[C@@H](O)C2)cc1)c1nc2ccccc2[nH]1 was 9.00

----------
target: cAMP and cAMP-inhibited cGMP 3',5'-cyclic phosphodiesterase 10A (Homo sapiens, UniProt Q9Y233)
Documented pIC50 across a set of compounds
Worth noting: pIC50 values are minus log10 of concentrations stated in mol/L.

COc1cnccc1-c1cccnc1Oc1ccc(Nc2nc3ccccc3s2)cc1	9.13
CC(C)c1ccc(Cn2c(Nc3ccc(Oc4ncccc4C4CCOCC4)cc3)nc3ccccc32)cc1	7.50

Could you now consider this next compound?
Reported pIC50 for Cn1cc(-c2cccnc2Oc2ccc(C(=O)c3nc4ccccc4[nH]3)cc2)cn1 was 8.20
